test.name: in vitro
condition.details: chicken, Viability of LMH Cells (%) ± SD, MTT, 0.1%, 24 h

[
  {
    "smiles.str": "c1ccc2[nH]ccc2c1",
    "viability": "82.2%"
  }
]

====

test.name: in vitro
condition.details: chicken, LMH chicken liver hepatocellular carcinoma cells, Viability of LMH Cells (%) ± SD, MTT, 0.5%, 72 h

[
  {
    "compound": "CCCC(=O)O [Butyric acid]",
    "viability at 72 h, 0.5 % (%)": 7.6
  }
]

====

test.name: in vitro
condition.details: chicken, Viability of LMH Cells (%) ± SD, MTT, 0.0004%, 72 h

[
  {
    "compound": "c1ccc2[nH]ccc2c1 [Indole]",
    "unit.info": "%",
    "viability": 90.7
  }
]

====

test.name: in vitro
condition.details: chicken, Viability of LMH Cells (%) ± SD, MTT, 0.05%, 24 h

[
  {
    "smiles.str": "c1ccc2[nH]ccc2c1",
    "viability, %": 94.3
  }
]

====

test.name: in vitro
condition.details: chicken, LMH chicken liver hepatocellular carcinoma cells, Viability of LMH Cells (%) ± SD, MTT, […], 72 h

[
  {
    "smiles.str": "CCCC(=O)O",
    "viability at 72 h, […] (%)": 67.2
  }
]

====

test.name: in vitro
condition.details: chicken, Viability of LMH Cells (%) ± SD, MTT, […], 72 h

[
  {
    "smiles.str": "c1ccc2[nH]ccc2c1",
    "unit.info": "%",
    "viability": 104
  }
]

====

test.name: in vitro
condition.details: chicken, LMH chicken liver hepatocellular carcinoma cells, Viability of LMH Cells (%) ± SD, MTT, 0.025%, 72 h

[
  {
    "molecule": "CCCC(=O)O [Butyric acid]",
    "unit.info": "%",
    "viability at 72 h, 0.025 %": 86
  }
]

====

test.name: in vitro
condition.details: chicken, LMH chicken liver hepatocellular carcinoma cells, Viability of LMH Cells (%) ± SD, MTT, 0.013%, 72 h

[
  {
    "smiles.str": "CCCC(=O)O",
    "viability at 72 h, 0.013 % [%]": 95.7
  }
]

====

test.name: in vitro
condition.details: chicken, Viability of LMH Cells (%) ± SD, MTT, 0.0016%, 24 h

[
  {
    "molecule": "c1ccc2[nH]ccc2c1 [Indole]",
    "unit.info": "%",
    "viability": 97.4
  }
]

====

test.name: in vitro
condition.details: chicken, Viability of LMH Cells (%) ± SD, MTT, 0.0063%, 72 h
readout.label: viability

[
  {
    "compound": "c1ccc2[nH]ccc2c1 [Indole]",
    "value.measured": "109%"
  }
]

====

test.name: in vitro
condition.details: chicken, LMH chicken liver hepatocellular carcinoma cells, Viability of LMH Cells (%) ± SD, MTT, 0.063%, 24 h

[
  {
    "smiles.str": "CCCC(=O)O",
    "viability at 24 h, 0.063 % / %": 68.9
  }
]

====

test.name: in vitro
condition.details: chicken, LMH chicken liver hepatocellular carcinoma cells, Viability of LMH Cells (%) ± SD, MTT, […], 24 h

[
  {
    "smiles.str": "CCCC(=O)O",
    "viability at 24 h, […]": "89.3%"
  }
]

====

test.name: in vitro
condition.details: chicken, LMH chicken liver hepatocellular carcinoma cells, Viability of LMH Cells (%) ± SD, MTT, 0.125%, 24 h
readout.label: viability at 24 h, 0.125 % (%)

[
  {
    "compound": "CCCC(=O)O [Butyric acid]",
    "readout.label": "viability at 24 h, 0.125 %",
    "unit.info": "%",
    "value.measured": 65
  }
]

====

test.name: in vitro
condition.details: chicken, LMH chicken liver hepatocellular carcinoma cells, Viability of LMH Cells (%) ± SD, MTT, 0.25%, 24 h
readout.label: viability at 24 h, 0.25 % (%)

[
  {
    "compound": "CCCC(=O)O [Butyric acid]",
    "readout.label": "viability at 24 h, 0.25 %",
    "value.measured": 59.4
  }
]

====

test.name: in vitro
condition.details: chicken, Viability of LMH Cells (%) ± SD, MTT, 0.05%, 72 h

[
  {
    "compound": "c1ccc2[nH]ccc2c1 [Indole]",
    "viability": "73%"
  }
]

====

test.name: in vitro
condition.details: chicken, Viability of LMH Cells (%) ± SD, MTT, 0.0125%, 24 h

[
  {
    "smiles.str": "c1ccc2[nH]ccc2c1",
    "viability / %": 95.5
  }
]

====

test.name: in vitro
condition.details: chicken, LMH chicken liver hepatocellular carcinoma cells, Viability of LMH Cells (%) ± SD, MTT, 0.25%, 72 h

[
  {
    "compound": "CCCC(=O)O [Butyric acid]",
    "viability at 72 h, 0.25 % (%)": 31.1
  }
]

====

test.name: in vitro
condition.details: chicken, LMH chicken liver hepatocellular carcinoma cells, Viability of LMH Cells (%) ± SD, MTT, 0.006%, 72 h

[
  {
    "smiles.str": "CCCC(=O)O",
    "viability at 72 h, 0.006 % / %": 98.2
  }
]

====

test.name: in vitro
condition.details: chicken, Viability of LMH Cells (%) ± SD, MTT, 0.0004%, 24 h
readout.label: viability (%)

[
  {
    "smiles.str": "c1ccc2[nH]ccc2c1",
    "value.measured": 88.6
  }
]

====

test.name: in vitro
condition.details: chicken, LMH chicken liver hepatocellular carcinoma cells, Viability of LMH Cells (%) ± SD, MTT, 0.025%, 24 h
readout.label: viability at 24 h, 0.025 %

[
  {
    "smiles.str": "CCCC(=O)O",
    "readout.label": "viability at 24 h, 0.025 %",
    "value.measured": "100%"
  }
]

====

test.name: in vitro
condition.details: chicken, Viability of LMH Cells (%) ± SD, MTT, 0.0008%, 24 h

[
  {
    "molecule": "c1ccc2[nH]ccc2c1 [Indole]",
    "viability / %": 95
  }
]

====

test.name: in vitro
condition.details: chicken, LMH chicken liver hepatocellular carcinoma cells, Viability of LMH Cells (%) ± SD, MTT, 0.125%, 72 h
readout.label: viability at 72 h, 0.125 %

[
  {
    "smiles.str": "CCCC(=O)O",
    "readout.label": "viability at 72 h, 0.125 %",
    "value.measured": "46.4%"
  }
]

====

test.name: in vitro
condition.details: chicken, LMH chicken liver hepatocellular carcinoma cells, Viability of LMH Cells (%) ± SD, MTT, 0.013%, 24 h
readout.label: viability at 24 h, 0.013 % (%)

[
  {
    "smiles.str": "CCCC(=O)O",
    "value.measured": 100
  }
]

====

test.name: in vitro
condition.details: chicken, Viability of LMH Cells (%) ± SD, MTT, 0.0008%, 72 h
readout.label: viability (%)

[
  {
    "smiles.str": "c1ccc2[nH]ccc2c1",
    "value.measured": 94.3
  }
]

====

test.name: in vitro
condition.details: chicken, Viability of LMH Cells (%) ± SD, MTT, 0.0063%, 24 h
readout.label: viability (%)

[
  {
    "smiles.str": "c1ccc2[nH]ccc2c1",
    "unit.info": "%",
    "value.measured": 103
  }
]

====

test.name: in vitro
condition.details: chicken, LMH chicken liver hepatocellular carcinoma cells, Viability of LMH Cells (%) ± SD, MTT, 0.5%, 24 h

[
  {
    "smiles.str": "CCCC(=O)O",
    "viability at 24 h, 0.5 % (%)": 25.1
  }
]

====

test.name: in vitro
condition.details: chicken, Viability of LMH Cells (%) ± SD, MTT, 0.0016%, 72 h
readout.label: viability

[
  {
    "smiles.str": "c1ccc2[nH]ccc2c1",
    "value.measured": "94.8%"
  }
]
